The reader will find reported half-life at 1 μM values listed item by item below.
# method_notes: In vitro liver microsome stability, mouse
# Type: in vitro ADME
# stated_conditions: liver microsomes, 0.5 mg/mL microsomes, 1 μM compound, NADPH, 37° C., read-out: Mouse liver microsomes Half-life T1/2

Reference set, count: 2
>>> result("Cc1cnc(-c2cccc(C(=O)O)c2)c(F)c1-n1c(C)cc(OCc2ncc(F)cc2F)c(Cl)c1=O [Compound 29-P1]")
"> 280 min"
>>> result("Cc1cnc(-c2cccc(C(=O)O)c2)cc1-n1c(C)cc(OCc2ncc(F)cc2F)c(Cl)c1=O")
"> 280 min"

# ---- query molecule ----
Ask: Give the value of half-life at 1 μM reported for the following: Cc1cnc(-c2ccc(F)c([C@@](C)(O)CO)c2F)cc1-n1c(C)cc(OCc2ncc(F)cc2F)c(Cl)c1=O (single isomer, unassigned)
Reply: > 280 min

====

# method_notes: Pharmacokinetic evaluation in mice
# Type: in vivo
# stated_conditions: mouse, plasma, intravenous injection group 1 mg/kg, read-out: Clearance CL (converted)
reported_property: clearance (mL/min/kg)
Express it in mL/min/kg; write the number only.

Reference set, count: 4
>>> quantitative_result("Cc1cnc(-c2cccc(C(=O)N(C)C)c2)c(F)c1-n1c(C)cc(OCc2ncc(F)cc2F)c(Cl)c1=O (single isomer, unassigned) [Compound 32-P1]")
21.1
>>> quantitative_result("CNC(=O)c1cccc(-c2ncc(C)c(-n3c(C)cc(OCc4ncc(F)cc4F)c(Cl)c3=O)c2F)c1 [Compound 31-P1]")
12.3
>>> quantitative_result("Cc1cnc(-c2cccc(S(C)(=O)=O)c2)c(F)c1-n1c(C)cc(OCc2ncc(F)cc2F)c(Cl)c1=O [Compound 33-P1]")
10.8
>>> quantitative_result("Cc1cnc(-c2cccc(C(=O)O)c2)c(F)c1-n1c(C)cc(OCc2ncc(F)cc2F)c(Cl)c1=O [Compound 29-P1]")
10.4

# ---- query molecule ----
Ask: Give the value of clearance reported for the following: Cc1cnc(-c2cccc(C(N)=O)c2)c(F)c1-n1c(C)cc(OCc2ncc(F)cc2F)c(Cl)c1=O [Compound 30-P1]
Reply: 15.2

====

The reader will find reported half-life at 1 μM values listed item by item below.
# method_notes: In vitro liver microsome stability, human
# Format: in vitro ADME
# stated_conditions: liver microsomes, 0.5 mg/mL microsomes, 1 μM compound, NADPH, 37° C., read-out: Human liver microsomes Half-life T1/2

Reference set, count: 5
>>> result("[2H]C([2H])(Oc1cc(C)n(-c2cc(-c3ccc(F)c([C@@](C)(O)CO)c3F)ncc2C)c(=O)c1Cl)c1ncc(F)cc1F [Compound 145-P1]")
"> 4.66 h"
>>> result("Cc1cnc(-c2cccc([C@@](C)(O)CO)c2F)cc1-n1c(C)cc(OCc2ncc(F)cc2F)c(Cl)c1=O [Compound 35-P1]")
"> 4.66 h"
>>> result("Cc1cnc(-c2cccc(C(=O)O)c2)cc1-n1c(C)cc(OCc2ncc(F)cc2F)c(Cl)c1=O [Compound 1]")
"> 4.66 h"
>>> result("Cc1cnc(-c2cccc(S(C)(=O)=O)c2)cc1-n1c(C)cc(OCc2ncc(F)cc2F)c(Cl)c1=O [Compound 11]")
"> 4.66 h"
>>> result("CNC(=O)C(C)(O)c1cc(-c2ncc(C)c(-n3c(C)cc(OCc4ncc(F)cc4F)c(Cl)c3=O)c2F)ccc1F (stereo not drawn) [Compound 124-P2]")
"> 4.66 h"

Ask: Give the value of half-life at 1 μM reported for the following: Cc1cnc(-c2ccc(F)c(C(C)(O)C(N)=O)c2)c(F)c1-n1c(C)cc(OCc2ncc(F)cc2F)c(Cl)c1=O (stereo not drawn) [Compound 128-P1]
Reply: > 4.66 h

Ask: Give the value of half-life at 1 μM reported for the following: Cc1cnc(-c2ccc(F)c([C@@](C)(O)CO)c2F)c(F)c1-n1c(C)cc(OCc2ncc(F)cc2F)c(Cl)c1=O [Compound 113-P1]
Reply: > 4.66 h

Ask: Give the value of half-life at 1 μM reported for the following: [2H]C([2H])(Oc1cc(C)n(-c2cc(-c3cccc([C@@](C)(O)CO)c3F)ncc2C)c(=O)c1Cl)c1ncc(F)cc1F [Compound 146-P1]
Reply: > 4.66 h

Ask: Give the value of half-life at 1 μM reported for the following: CNC(=O)c1cccc(-c2cc(-n3c(C)cc(OCc4ncc(F)cc4F)c(Cl)c3=O)c(C)cn2)c1F (single isomer, unassigned) [Compound 20-P2]
Reply: > 4.66 h

Ask: Give the value of half-life at 1 μM reported for the following: Cc1cnc(-c2cccc(C(=O)O)c2)c(F)c1-n1c(C)cc(OCc2ncc(F)cc2F)c(Cl)c1=O [Compound 29-P1]
Reply: > 4.66 h

====

# tested_system: p38 MAPK/MK2 (Homo sapiens)
# Construct: Abcam (MK2) 04-152; 79910
# Sequence (Q16539 whole entry): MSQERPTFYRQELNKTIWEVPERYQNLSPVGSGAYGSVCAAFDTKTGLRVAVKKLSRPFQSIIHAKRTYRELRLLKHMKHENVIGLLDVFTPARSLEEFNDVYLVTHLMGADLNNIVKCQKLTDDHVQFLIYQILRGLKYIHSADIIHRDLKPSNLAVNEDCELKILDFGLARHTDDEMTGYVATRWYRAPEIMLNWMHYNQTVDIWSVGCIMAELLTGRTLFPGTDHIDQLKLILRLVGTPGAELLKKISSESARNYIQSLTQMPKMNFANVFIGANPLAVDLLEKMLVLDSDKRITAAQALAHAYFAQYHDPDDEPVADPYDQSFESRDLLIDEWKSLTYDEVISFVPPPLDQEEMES
# Sequence (P49137 whole entry partner): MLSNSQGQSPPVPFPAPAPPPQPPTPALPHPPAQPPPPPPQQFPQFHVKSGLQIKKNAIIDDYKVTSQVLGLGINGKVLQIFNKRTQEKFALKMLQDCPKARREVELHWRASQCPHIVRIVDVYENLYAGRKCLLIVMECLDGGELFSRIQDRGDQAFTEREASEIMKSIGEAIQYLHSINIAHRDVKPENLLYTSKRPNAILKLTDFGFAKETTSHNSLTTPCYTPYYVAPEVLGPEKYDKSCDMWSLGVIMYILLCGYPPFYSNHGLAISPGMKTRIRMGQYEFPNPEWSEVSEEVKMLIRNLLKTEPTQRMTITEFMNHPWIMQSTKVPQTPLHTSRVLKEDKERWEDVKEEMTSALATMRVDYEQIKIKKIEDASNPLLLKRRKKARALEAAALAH
# method_notes: In vitro activity assay of p38 MAPK/MK2 (Z-LYTE kinase assay kit)
# stated_conditions: active p38α, inactive MK2, Ser/Thr 4; 1-hour reaction at 20° C.
reported_property: IC50 (nM)
Express it in nM; write the number only.

Reference set, count: 2
>>> quantitative_result("Cc1cnc(-c2ccc(F)c([C@](C)(O)CO)c2F)cc1-n1c(C)cc(OCc2ncc(F)cc2F)c(Cl)c1=O (single isomer, unassigned) [Compound 65-1]")
1.27
>>> quantitative_result("Cc1cnc(-c2cccc([C@@](C)(O)CO)c2F)cc1-n1c(C)cc(OCc2ncc(F)cc2F)c(Cl)c1=O [Compound 35-P1]")
1.44

# ---- query compound ----
Ask: Give the value of IC50 reported for the following: Cc1cnc(-c2cc(F)cc([C@@](C)(O)CO)c2F)cc1-n1c(C)cc(OCc2ncc(F)cc2F)c(Cl)c1=O [Compound 110-P1]
Reply: 0.7

====

# method_notes: Pharmacokinetic evaluation in mice
# Format: in vivo
# stated_conditions: mouse, plasma, intravenous injection group 1 mg/kg, read-out: Volume of distribution Vd
reported_property: Vd (L/kg)
Express it in L/kg; write the number only.

>>> quantitative_result("Cc1cnc(-c2cccc(S(C)(=O)=O)c2)c(F)c1-n1c(C)cc(OCc2ncc(F)cc2F)c(Cl)c1=O [Compound 33-P1]")
0.32
>>> quantitative_result("CNC(=O)c1cccc(-c2ncc(C)c(-n3c(C)cc(OCc4ncc(F)cc4F)c(Cl)c3=O)c2F)c1 [Compound 31-P1]")
0.47
>>> quantitative_result("Cc1cnc(-c2cccc(C(N)=O)c2)c(F)c1-n1c(C)cc(OCc2ncc(F)cc2F)c(Cl)c1=O [Compound 30-P1]")
0.41
>>> quantitative_result("Cc1cnc(-c2cccc(C(=O)N(C)C)c2)c(F)c1-n1c(C)cc(OCc2ncc(F)cc2F)c(Cl)c1=O (single isomer, unassigned) [Compound 32-P1]")
0.49

# ---- query molecule ----
Ask: Give the value of Vd reported for the following: Cc1cnc(-c2cccc(C(=O)O)c2)c(F)c1-n1c(C)cc(OCc2ncc(F)cc2F)c(Cl)c1=O [Compound 29-P1]
Reply: 1.83

====

# method_notes: Pharmacokinetic evaluation in mice
# Format: in vivo
# stated_conditions: mouse, plasma, intravenous injection group 1 mg/kg, read-out: Half-life T1/2 (converted)
half-life strictly under 30 min means true; at 30 min or over means false.

>>> category("Cc1cnc(-c2cccc(C(N)=O)c2)c(F)c1-n1c(C)cc(OCc2ncc(F)cc2F)c(Cl)c1=O [Compound 30-P1]")
"true"
>>> category("Cc1cnc(-c2cccc(C(=O)N(C)C)c2)c(F)c1-n1c(C)cc(OCc2ncc(F)cc2F)c(Cl)c1=O (single isomer, unassigned) [Compound 32-P1]")
"true"
>>> category("Cc1cnc(-c2cccc(S(C)(=O)=O)c2)c(F)c1-n1c(C)cc(OCc2ncc(F)cc2F)c(Cl)c1=O [Compound 33-P1]")
"false"

Ask: Criterion: half-life strictly below 30 min. Is it met by Cc1cnc(-c2cccc(C(=O)O)c2)c(F)c1-n1c(C)cc(OCc2ncc(F)cc2F)c(Cl)c1=O [Compound 29-P1] ?
Reply: false

Ask: Criterion: half-life strictly below 30 min. Is it met by CNC(=O)c1cccc(-c2ncc(C)c(-n3c(C)cc(OCc4ncc(F)cc4F)c(Cl)c3=O)c2F)c1 [Compound 31-P1] ?
Reply: false

====

The reader will find reported half-life at 1 μM values listed item by item below.
# method_notes: In vitro liver microsome stability, mouse
# Type: in vitro ADME
# stated_conditions: liver microsomes, 0.5 mg/mL microsomes, 1 μM compound, NADPH, 37° C., read-out: Mouse liver microsomes Half-life T1/2
# Protocol: The reference compound used in this experiment was Ketanserin, and the final concentration of microsomes in the experimental system was 0.5 mg/mL. The PBS buffer was a 50 mM K2HPO4 buffer. The concentration of the test compound was 1 μM. […] The samples at each time point were analyzed by LC-MS/MS (AB Triple Quard 5500) to determine the compound content, and the T1/2 was calculated.

>>> result("CNC(=O)c1cccc(-c2cc(-n3c(C)cc(OCc4ncc(F)cc4F)c(Cl)c3=O)c(C)cn2)c1")
"3.96 h"

Ask: Give the value of half-life at 1 μM reported for the following: CNC(=O)c1cccc(-c2cc(-n3c(C)cc(OCc4ncc(F)cc4F)c(Cl)c3=O)c(C)cn2)c1F (single isomer, unassigned) [Compound 20-P2]
Reply: > 4.66 h

Ask: Give the value of half-life at 1 μM reported for the following: CNC(=O)c1cccc(-c2ncc(C)c(-n3c(C)cc(OCc4ncc(F)cc4F)c(Cl)c3=O)c2F)c1 [Compound 31-P1]
Reply: 1.79 h
